Listed below: pIC50 values for each entry.
# target-entity: Cytochrome P450 1B1 (Homo sapiens)
# Sequence (Q16678 whole entry): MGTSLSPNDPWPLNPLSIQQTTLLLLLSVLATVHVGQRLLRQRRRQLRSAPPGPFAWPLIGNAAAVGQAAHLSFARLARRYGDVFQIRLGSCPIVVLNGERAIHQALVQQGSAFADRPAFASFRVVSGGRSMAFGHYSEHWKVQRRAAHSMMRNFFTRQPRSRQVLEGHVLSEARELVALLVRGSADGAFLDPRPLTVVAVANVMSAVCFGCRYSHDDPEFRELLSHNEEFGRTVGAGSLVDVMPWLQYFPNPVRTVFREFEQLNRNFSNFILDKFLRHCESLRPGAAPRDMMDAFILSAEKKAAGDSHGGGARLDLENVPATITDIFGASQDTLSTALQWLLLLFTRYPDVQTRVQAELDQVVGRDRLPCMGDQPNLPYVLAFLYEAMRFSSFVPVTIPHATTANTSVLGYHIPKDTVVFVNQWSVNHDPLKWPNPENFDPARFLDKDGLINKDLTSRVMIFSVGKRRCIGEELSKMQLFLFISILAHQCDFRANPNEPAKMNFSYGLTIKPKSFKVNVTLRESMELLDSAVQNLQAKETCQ
# assay-protocol: Inhibition of recombinant human CYP1B1 using 7-ER as substrate in presence of NADPH by fluorescence based assay
Scale: pIC50 equals -log10([C]), with [C] in mol/L.

Worked cases, pIC50 given:
                    structure_smiles_string  experimental_result
0   O=C1c2cccc3c(Br)ccc(c23)C(=O)N1Cc1ccon1                 7.37
1  O=C1c2cccc3c(Br)ccc(c23)C(=O)N1Cc1cn[nH]c1                 9.68
2   O=C1c2cccc3c(Br)ccc(c23)C(=O)N1Cc1nccs1                 7.43

CCN1C(=O)c2cccc3cc(Br)cc(c23)C1=O on Cytochrome P450 1B1 (Homo sapiens) gives pIC50 = 8.27

O=C1c2cccc3c(Br)ccc(c23)C(=O)N1Cc1ccc2ncccc2c1 on Cytochrome P450 1B1 (Homo sapiens) gives pIC50 = 7.52

O=C1c2cccc3c(Br)ccc(c23)C(=O)N1Cc1ccncn1 on Cytochrome P450 1B1 (Homo sapiens) gives pIC50 = 7.64

O=C1c2cccc3cccc(c23)C(=O)N1Cc1cncnc1 on Cytochrome P450 1B1 (Homo sapiens) gives pIC50 = 6.66

O=C1c2cccc3c(Br)ccc(c23)C(=O)N1Cc1cnccn1 on Cytochrome P450 1B1 (Homo sapiens) gives pIC50 = 6.81

O=C1c2cccc3c(Br)ccc(c23)C(=O)N1Cc1ccc[nH]1 on Cytochrome P450 1B1 (Homo sapiens) gives pIC50 = 9.41

O=C1c2cccc3c(Br)ccc(c23)C(=O)N1CC1CCC1 on Cytochrome P450 1B1 (Homo sapiens) gives pIC50 = 8.44
